# Test system: SH-SY5Y cells
# PROTOCOL_DESCRIPTION: Neuroprotection in 6-OHDA-treated SH-SY5Y cells (MTT)
# Type: cell-based, human
# CONDITION: β-FNA 10 µM or NLT 10 µM 30 min before peptide (1 and/or 10 µM) and 6-OHDA 100 µM, 24 h
Square brackets hold non-standard residues; d marks the D form. Peptide text beside a SMILES is read from it. Dmt = Cc1cc(O)cc(C)c1C[C@H](N)C(=O)O; Inp = O=C(O)C1CCNCC1
READOUT_KIND: peptide neuroprotection with opioid receptor antagonists

CC(C)C[C@H](NC(=O)C1CCN(C(=O)[C@@H](N)Cc2ccc(O)cc2)CC1)C(=O)N[C@@H](CC(=O)O)C(=O)N[C@@H](CC(C)C)C(=O)N[C@@H](Cc1ccccc1)C(N)=O [analog 7, Tyr-Inp-Leu-Asp-Leu-Phe-NH2] (H-Y[Inp]LDLF-NH2)	did not abolish
Cc1cc(O)cc(C)c1C[C@H](N)C(=O)N1CCC[C@H]1C(=O)N[C@@H](CC(C)C)C(=O)N[C@@H](CC(=O)O)C(=O)N[C@@H](CC(C)C)C(=O)N[C@@H](Cc1ccccc1)C(=O)O [analog 1, Dmt-Pro-Leu-Asp-Leu-Phe-OH] (H-[Dmt]PLDLF-OH)	did not abolish
CC(C)C[C@H](NC(=O)C1CCN(C(=O)[C@@H](N)Cc2ccc(O)cc2)CC1)C(=O)N[C@@H](CC(=O)O)C(=O)N[C@@H](CC(C)C)C(=O)N[C@@H](Cc1ccccc1)C(=O)O [analog 3, Tyr-Inp-Leu-Asp-Leu-Phe-OH] (H-Y[Inp]LDLF-OH)	did not abolish
